System: DU-145 prostate
Assay: NCI-60 one-dose screen, 48 h (100 = growth as untreated, 0 = no growth, -100 = all killed)
Conditions: 10 µM unless noted
The panel holds about 83,000 compounds, 20% with a hit somewhere; the sample as a whole holds those more often.
// Not fulfilled strictly below 90% in growth; Fulfilled otherwise

Example cases with answers are listed next.
In: Hi team, for `CC(=O)O[C@H]1CC[C@H]2[C@@H]3CC=C4c5nc(-c6ccccc6)sc5CC[C@]4(C)[C@H]3CC[C@]12C` , is the recorded growth at or above 90%?
Out: Not fulfilled

In: Likewise for O=[N+]([O-])CC(c1ccccc1Cl)c1c(-c2ccccc2)[nH]c2ccccc12 (centres undefined) ?
Out: Not fulfilled

In: Likewise for `CCOC(=O)[C@@H](C)C[C@H](Cc1ccccc1)NC(=O)c1nc([C@@H](C[C@H](C(C)C)N(C)C(=O)[C@@H](NC(=O)[C@H]2CCCCN2C)C(C)C)OC(C)=O)sc1CCOCc1ccccc1` ?
Out: Not fulfilled

In: Likewise for `CC[C@H](C)[C@H](NC(=O)C12CC(NC(C)=O)(C1)C2)C(=O)N(C)[C@H](C[C@@H](OC(C)=O)c1nc(C(=O)N[C@@H](Cc2ccccc2)C[C@H](C)C(=O)OC)cs1)C(C)C` ?
Out: Not fulfilled

In: Likewise for CN1CCCCC1C(C)(O)c1ccccc1 (centres undefined) ?
Out: Fulfilled

Next:
In: Hi team, for `CC(C)=CCC[C@H](C(=O)O)[C@@H]1CC[C@]2(C)C3=C(CC[C@@]12C)[C@@]1(C)CC[C@H](O)C(C)(C)[C@@H]1CC3` , is the recorded growth at or above 90%?
Out: Fulfilled

In: Likewise for `CCCCCCCOC(C(=O)OCCN(CC)CC)(c1ccccc1)c1ccccc1` ?
Out: Not fulfilled

In: Likewise for `CCOC(=S)S[C@H]1C[C@@H]2[C@H](CC[C@]3(C)C(=O)CC[C@@H]23)[C@@]2(C)CCC(=O)C=C12` ?
Out: Fulfilled

In: Likewise for `COc1cc(/C=C/[N+](=O)[O-])c([N+](=O)[O-])cc1OC` ?
Out: Not fulfilled
